conditions: 373.1 K; Liquid; Closed cell (Static) method
For each record, write down the corresponding vapor or sublimation pressure.
One number for each entry, in kPa.

>>> df
   compound_structure_string             parameter_measured  recorded_result
0                  CCc1cccs1  vapor or sublimation pressure            33.26
1                  C=CCCCCCC  vapor or sublimation pressure            53.82
2             CC(C)CC(C)(C)C  vapor or sublimation pressure           103.49

Let's switch to this molecule now.
Summary for this molecule, Cc1cccs1 : vapor or sublimation pressure is 69.87
